Cited source: patent US20250296916A1

System: rabbit skeletal myofibrils (approximately 90% fast fibers)
Experiment: Activation of fast skeletal myofibrils (PUMA coupled-enzyme ATPase assay)
Assay type: biochemical
Details: concentration at which the compound increased the enzymatic activity by 40%; calcium at pCa25; PM12 buffer pH 6.8
Catalogue of molecules with associated AC1.4
endpoint: AC1.4 (µM)

samplesmiles=CCC[C@H]1C(=O)Nc2ccccc2N1C(=O)c1ccc(N2CC(F)C2)nc1 valueobserved=1.58
samplesmiles=CC[C@H](C)[C@H]1C(=O)Nc2ccccc2N1C(=O)N(C)CCO valueobserved=2.15
samplesmiles=CCC[C@H]1C(=O)Nc2ccccc2N1C(=O)c1cnc2[nH]ncc2c1 valueobserved=0.11
samplesmiles=CCC[C@H]1C(=O)Nc2ccccc2N1C(=O)Nc1ccccc1C valueobserved=0.82
samplesmiles=CC(C)[C@H]1C(=O)Nc2ccccc2N1C(=O)c1cnn(C)c1 valueobserved=0.08
